# target_under_test: T1, recombinant human CTGF-Fc protein (Creative Biomart) (human)
# T1 construct: Bought; also called human CTGF with a human IgG1 Fc Tag
# assay_text: SPR (Biacore)
outcome_measure: kon (M⁻¹ s⁻¹)

binder: lipocalin mutein of SEQ ID NO: 6 (designed binder, also called hNGAL mutein; not shown: C-terminal His-tag) QDSTSDLIPAPPLSKVPLQQNFQDNQFQGKWYVVGRAGNNQLREDKSPPKMWATIYELKEDKSYDVTHVHFSTKKCRYIIDTFVPGSQPGEFTAGAIKSGPGLTSPLVRVVSTNYNQHAMVFFKWVTQNREWFTITLYGRTKELTSELKENFIRFSKSLGLPENHIVFPVPIDQCIDG
observed_result: 290000
//
binder: lipocalin mutein of SEQ ID NO: 34 (designed binder, also called hNGAL mutein) QDSTSDLIPAPPLSKVPLQQNFQDNQFQGKWYVVGWAGNVILREDKQPFKMSATIYELKEDKSYDVTEVVFEQKKCHYIIKTFVPGSQPGEFTLGDIKSPPGETSTLVRVVSTNYNQHAMVFFKKVSQNREFFWITLYGRTKELTSELKENFIRFSKSLGLPENHIVFPVPIDQCIDG
observed_result: 150000
//
binder: lipocalin mutein of SEQ ID NO: 7 (designed binder, Parent hNGAL mutein; also called hNGAL mutein) QDSTSDLIPAPPLSKVPLQQNFQDNQFHGKWYVVGLAGNYGLRTDKRPSKMFATIYELKEDKSYDVTSVRFEQERCHYTIRTFVPGSQPGEFTTGSIKSRPGQTSSLVRVVSTNYNQHAMVFFKSVIQNREYFAITLYGRTKELTSELKENFIRFSKSLGLPENHIVFPVPIDQCIDGSAWSHPQFEK
observed_result: 97600
